Origin of measurements: patent US20210145976A1

system_name: T1, recombinant biotinylated CD71 extracellular domain (Sino Biologics) with an N-terminal 6His tag (human, UniProt P02786 89-760, biotinylated (sites not given))
T1 construct: extracellular domain; also called hCD71; huCD71
method_description: screening ELISA

- binder: "SEQ ID NO 217 (designed binder, FN3 domain) MLPAPKNLVVSRVTEDSARLSWTAPDAAFDSFIIEYWEWYFAGEAIVLTVPGSERSYDLTGLKPGTEYTVWITGVKGGTWSEPLSAIFTT"
  hCD71: "3.9e+06"
- binder: "SEQ ID NO 152 (designed binder, FN3 domain) MLPAPKNLVVSRVTEDSARLSWTAPDAAFDSFFIGYLEPQPPGEAIVLTVPGSERSYDLTGLKPGTEYNVTIQGVKGGFPSSPLSAIFTT"
  hCD71: "2.83e+06"
- binder: "SEQ ID NO 287 (designed binder, FN3 domain) MLPAPKNLVVSRVTEDSARLSWTAPDAAFDSFTIEYHESGPVGEAIVLTVPGSERSYDLTGLKPGTEYMVWIFGVKGGFVSRPLSAIFTT"
  hCD71: "3.88e+06"
- binder: "SEQ ID NO 231 (designed binder, FN3 domain) MLPAPKNLVVSRVTEDSARLSWTAPDAAFDSFEIPYIETVALGEAIVLTVPGSERSYDLTGLKPGTEYYVEIYGVKGGSYSYPLSAISTT"
  hCD71: "2.27e+06"
- binder: "SEQ ID NO 248 (designed binder, FN3 domain) MGSLPAPKNLVVSRVTEDSARLSWTAPDAAFDSFAIPYAEPSPTGEAIVLTVPGSERSYDLTGLKPGTEYPVWIQGVKGGSPSAPLSAEFTT"
  hCD71: 832000
- binder: "SEQ ID NO 185 (designed binder, FN3 domain) MLPAPKNLVVSRVTEDSARLSWTAPDAAFDSFEIDYDELAIYGEAIVLTVPGSERSYDLTGLKPGTEYGVMIIGVKGGLPSDPLSAIFTT"
  hCD71: "1.81e+06"
- binder: "SEQ ID NO 167 (designed binder, FN3 domain) MLPAPKNLVVSRVTEDSARLSWTAPDAAFDSFFIGYLEPQPPGEAIVLTVPGSERSYDLTGLKPGTEYNVTIQGVKGGTPSEPLSAIFTT"
  hCD71: "2.62e+06"
- binder: "SEQ ID NO 226 (designed binder, FN3 domain) MLPAPKNLVVSRVTEDSARLSWTAPDAAFDSFHIIYEEVLTEGEAIYLRVPGSERSYDLTGLKPGTEYGVTIKGVKGGAYSIPLIATFTT"
  hCD71: "4.33e+06"
- binder: "SEQ ID NO 222 (designed binder, FN3 domain) MLPAPKNLVVSRVTEDSARLSWTAPDAAFDSFYIEYFEWTGSGEAIVLTVPGSERSYDLTGLKPGTEYNVAIYGVKGGAVSYPLSAIFTT"
  hCD71: "1.74e+06"
- binder: "SEQ ID NO 171 (designed binder, FN3 domain) MLPAPKNLVVSRVTEDSARLSWTAPDAAFDSFAIRYLEWWDVGEAIVLTVPGSERSYDLTGLKPGTEYLVEIKGVKGGKFSYPLSAIFTT"
  hCD71: "3.72e+06"
- binder: "SEQ ID NO 118 (designed binder, FN3 domain) MLPAPKNLVVSRVTEDSARLSWTAPDAAFDSFRILYGEVDPWGEAIVLTVPGSERSYDLTGLKPGTEYDVWIEGVKGGKLSWPLSAIFTT"
  hCD71: "2.24e+06"
- binder: "SEQ ID NO 233 (designed binder, FN3 domain) MLPAPKNLVVSRVTEDSARLSWTAPDAAFDSFYIVYAEPIPNGEAIVLTVPGSERSYDLTGLKPGTEYSVLIHGVKGGRNSDPLSAIFTT"
  hCD71: "3.41e+06"
- binder: "SEQ ID NO 298 (designed binder, FN3 domain) MLPAPKNLVVSRVTEDSARLSWTAPDAAFDSFPIAYAEPRPDGEAIVLTVPGSERSYDLTGLKPGTEYSVLIHGVKGGLLSSPLSAISTT"
  hCD71: "2.51e+06"
- binder: "SEQ ID NO 202 (designed binder, FN3 domain) MLPAPKNLVVSRVTEDSARLSWTAPDAAFDSFYIDYLELTYSGEAIVLTVPGSERSYDLTGLKPGTEYYVYIYGVKGGYPSSPLSAIFTT"
  hCD71: "4.5e+06"
- binder: "SEQ ID NO 175 (designed binder, FN3 domain) MLPAPKNLVVSRVTEDSARLSWTAPDAAFDSFFIGYLEPQPPGEAIVLTVPGSERSYDLTGLKPGTEYSVVIQGVKGGFPSDPLSAIFTT"
  hCD71: "3.55e+06"
- binder: "SEQ ID NO 244 (designed binder, FN3 domain) MLPAPKNLVVSRVTEDSARLSWTAPDAAFDSFHIDYSEFHLRGEAIVLTVPGSERSYDLTGLKPGTEYLGIFGVKGGEQSGPLSAIFTT"
  hCD71: 545000
- binder: "SEQ ID NO 112 (designed binder, FN3 domain) MLPAPKNLVVSRVTEDSARLSWTAPDAAFDSFFIAYFEFANPGEAIVLTVPGSERSYDLTGLKPGTEYKVVIQGVKGGTPSEPLSAISTT"
  hCD71: "3.65e+06"
- binder: "SEQ ID NO 218 (designed binder, FN3 domain) MLPAPKNLVVSRVTEDSARLSWTAPDAAFDSFTILYYEMVGEGEAIVLTVPGSERSYDLTGPKPGTEYWVDIYGVKGGGWSRPLSAIFTT"
  hCD71: "2.39e+06"
